Please provide measured CRF2R Emax % for the entries that follow.
- testSystem: T1, CRF2R; also: reference of the scale not given here
- T1 sequence (Q13324 whole entry, species assumed, looked up): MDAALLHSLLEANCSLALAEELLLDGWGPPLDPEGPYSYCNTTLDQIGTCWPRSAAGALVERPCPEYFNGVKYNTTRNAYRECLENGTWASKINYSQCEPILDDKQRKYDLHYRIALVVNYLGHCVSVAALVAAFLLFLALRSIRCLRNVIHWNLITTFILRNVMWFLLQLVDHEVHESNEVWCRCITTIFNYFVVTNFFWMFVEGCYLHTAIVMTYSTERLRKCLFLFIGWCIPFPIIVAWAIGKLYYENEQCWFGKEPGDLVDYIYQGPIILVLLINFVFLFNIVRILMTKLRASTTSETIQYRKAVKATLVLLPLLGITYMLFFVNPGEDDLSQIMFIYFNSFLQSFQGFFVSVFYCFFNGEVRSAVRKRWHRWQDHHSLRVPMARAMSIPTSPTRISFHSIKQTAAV
- experimentalProtocol: cell-based or functional assay
Ends that are not written are not given here.
# output: bare number, implied unit %

Reported CRF2R Emax % of ZGPPISIDLPTWLLRKMIEIEKQEKEKQQAANNARLLARI (C-terminal amide) [SEQ ID NO 292] : 86.1

Reported CRF2R Emax % of IVLSLDVPIHLLQILLEQARARAAREQATTNARILARV-NH2 [SEQ ID NO 371] : 97

Reported CRF2R Emax % of ZGPPISIDVPYWLLRKVIEIEKQEKEKQQAANNARLLDTI (C-terminal amide) [SEQ ID NO 372] : 100

Reported CRF2R Emax % of ZGPPISIDLPFQLLRLLIEIEKQEKEKQQAANNALLLATI (C-terminal amide) [SEQ ID NO 360] : 93

Reported CRF2R Emax % of DNPSLSIDLPLLLLRTLLELEKTQSQRERAEQNANIFANV-NH2 [SEQ ID NO 326] : 100

Reported CRF2R Emax % of DNPSLSIDVPLYLLRTLLELEKTQSQRERAEQNARIFARV-NH2 [SEQ ID NO 387] : 100

Reported CRF2R Emax % of ZGPPISIDLPHQLLRKMIEIEKQEKEKQQAANNRLLLDTI (C-terminal amide) [SEQ ID NO 212] : 100

Reported CRF2R Emax % of ZGPPISIDLPFQLLRVLIEIEKQEKEKQQAANNALLLATI (C-terminal amide) [SEQ ID NO 361] : 99

Reported CRF2R Emax % of ZGPPISIDLPFQLLRKVIEIEKQEKEKQQAANNALLLATI (C-terminal amide) [SEQ ID NO 352] : 83.7

Reported CRF2R Emax % of ZGPPISIDLPFQLLRKVIEIEKQEKEKQQAANNAQLLAQI (not fully specified; C-terminal amide) [SEQ ID NO 276] : 100
